IC50 for assorted compounds
target.entity: UniProt P31645
assay.remarks: hSERT reuptake assay (HEK-hSERT, FDSS6000)
Assay type: cell-based
protocol.conditions: HEK-hSERT cells; Table 3
Counter-ions that a name gives are not always drawn.
measurement.type: IC50 (nM)

{"compound": "Cl.O=C(OC(c1ccc(Cl)cc1)C1CNC1)c1ccccc1 (stereo not shown) [KHG26772, hydrochloride]", "recorded.result": 2600}
{"compound": "Clc1ccc(C(Oc2ccccc2)C2CNC2)cc1Cl (stereo not shown) [KHG26767, hydrochloride]", "recorded.result": 50}
{"compound": "Cl.O=C(OC(c1ccc(Cl)c(Cl)c1)C1CNC1)c1ccccc1 (stereo not shown) [KHG26773, hydrochloride]", "recorded.result": 900}
{"compound": "Cc1ccc(OC(c2ccc(Cl)c(Cl)c2)C2CNC2)cc1.Cl (stereo not shown) [KHG26776, hydrochloride]", "recorded.result": 700}
{"compound": "Cl.Clc1ccc(C(OCc2ccccc2)C2CNC2)cc1Cl (stereo not shown) [KHG26770, hydrochloride]", "recorded.result": 900}
{"compound": "Cl.Clc1ccc(C(OCc2ccccc2)C2CNC2)cc1 (stereo not shown) [KHG26769, hydrochloride]", "recorded.result": 1500}
{"compound": "Cl.c1ccc(COC(c2ccccc2)C2CNC2)cc1 (stereo not shown) [KHG26768, hydrochloride]", "recorded.result": 4600}
{"compound": "Cc1cccc(OC(c2ccc(Cl)c(Cl)c2)C2CNC2)c1.Cl (stereo not shown) [KHG26775, hydrochloride]", "recorded.result": 600}
{"compound": "Cc1ccccc1OC(c1ccc(Cl)c(Cl)c1)C1CNC1.Cl (stereo not shown) [KHG26774, hydrochloride]", "recorded.result": 800}
{"compound": "Cl.Clc1ccc(C(Oc2ccccc2)C2CNC2)cc1 (stereo not shown) [KHG26766, hydrochloride]", "recorded.result": 40}

---

target.entity: UniProtKB Q01959
Sequence (Q01959 whole entry): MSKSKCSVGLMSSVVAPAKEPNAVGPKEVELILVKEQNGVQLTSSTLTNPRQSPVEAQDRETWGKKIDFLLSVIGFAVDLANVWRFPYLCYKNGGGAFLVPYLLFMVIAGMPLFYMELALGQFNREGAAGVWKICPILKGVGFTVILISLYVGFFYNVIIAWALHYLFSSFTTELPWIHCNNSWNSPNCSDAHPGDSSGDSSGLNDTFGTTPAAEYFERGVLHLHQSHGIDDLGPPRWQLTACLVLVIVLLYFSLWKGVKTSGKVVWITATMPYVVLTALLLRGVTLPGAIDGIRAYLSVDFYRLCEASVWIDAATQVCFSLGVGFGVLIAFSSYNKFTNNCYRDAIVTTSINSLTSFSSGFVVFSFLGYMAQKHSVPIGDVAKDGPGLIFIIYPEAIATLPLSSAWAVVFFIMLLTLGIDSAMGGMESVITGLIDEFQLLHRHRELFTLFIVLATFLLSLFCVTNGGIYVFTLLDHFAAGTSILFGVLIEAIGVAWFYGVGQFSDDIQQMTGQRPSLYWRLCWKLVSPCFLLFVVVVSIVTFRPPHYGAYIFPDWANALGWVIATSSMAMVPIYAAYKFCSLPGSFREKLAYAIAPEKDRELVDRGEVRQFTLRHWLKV
assay.remarks: hDAT reuptake assay (HEK-hDAT, FDSS6000)
Type: cell-based
protocol.conditions: HEK-hDAT cells; Table 3
Structures can show the parent of a compound that is named as a salt.

{"compound": "Cc1ccccc1OC(c1ccc(Cl)c(Cl)c1)C1CNC1.Cl (stereo not shown) [KHG26774, hydrochloride]", "IC50": "300 nM"}
{"compound": "Cl.Clc1ccc(C(OCc2ccccc2)C2CNC2)cc1 (stereo not shown) [KHG26769, hydrochloride]", "IC50": "800 nM"}
{"compound": "Cl.O=C(OC(c1ccc(Cl)c(Cl)c1)C1CNC1)c1ccccc1 (stereo not shown) [KHG26773, hydrochloride]", "IC50": "500 nM"}
{"compound": "Cl.c1ccc(COC(c2ccccc2)C2CNC2)cc1 (stereo not shown) [KHG26768, hydrochloride]", "IC50": "1900 nM"}
{"compound": "Cc1ccc(OC(c2ccc(Cl)c(Cl)c2)C2CNC2)cc1.Cl (stereo not shown) [KHG26776, hydrochloride]", "IC50": "300 nM"}
{"compound": "Clc1ccc(C(Oc2ccccc2)C2CNC2)cc1Cl (stereo not shown) [KHG26767, hydrochloride]", "IC50": "60 nM"}
{"compound": "Cc1cccc(OC(c2ccc(Cl)c(Cl)c2)C2CNC2)c1.Cl (stereo not shown) [KHG26775, hydrochloride]", "IC50": "400 nM"}
{"compound": "Cl.O=C(OC(c1ccc(Cl)cc1)C1CNC1)c1ccccc1 (stereo not shown) [KHG26772, hydrochloride]", "IC50": "1300 nM"}
{"compound": "Cl.Clc1ccc(C(Oc2ccccc2)C2CNC2)cc1 (stereo not shown) [KHG26766, hydrochloride]", "IC50": "150 nM"}
{"compound": "Cl.Clc1ccc(C(OCc2ccccc2)C2CNC2)cc1Cl (stereo not shown) [KHG26770, hydrochloride]", "IC50": "800 nM"}

---

Counter-ions that a name gives are not always drawn.

{"compound": "CCOC(c1ccc(Cl)cc1)C1CNC1.Cl (stereo not drawn)", "melting point, °C": 190}
{"compound": "Cc1ccc(OC(c2ccc3ccccc3c2)C2CNC2)cc1.Cl (stereo not drawn)", "melting point, °C": 203}
{"compound": "Cl.Fc1cc(C(Oc2ccccc2F)C2CNC2)ccc1Cl (stereo not drawn)", "melting point, °C": 198}
{"compound": "Cl.Fc1ccc(OC(c2ccc(Cl)c(F)c2)C2CNC2)cc1 (stereo not drawn)", "melting point, °C": 218}
{"compound": "Cc1cccc(OC(c2ccc(F)c(Cl)c2)C2CNC2)c1.Cl (stereo not drawn)", "melting point, °C": 151}
{"compound": "Clc1ccc(C(Oc2ccccc2)C2CNC2)cc1Cl (stereo not drawn) (as salt: hydrochloride)", "melting point, °C": 175}
{"compound": "Cl.Clc1ccc(OC(c2ccc3ccccc3c2)C2CNC2)cc1 (stereo not drawn)", "melting point, °C": 211}
{"compound": "Cl.Fc1ccc(C(Oc2ccc(Cl)cc2)C2CNC2)cc1Cl (stereo not drawn)", "melting point, °C": 218}
{"compound": "CC(C)(C)OC(c1ccc(Cl)c(Cl)c1)C1CNC1.Cl (stereo not drawn)", "melting point, °C": 159.9}
{"compound": "Cl.Fc1cc(C(Oc2ccc(Cl)c(Cl)c2)C2CNC2)ccc1Cl (stereo not drawn)", "melting point, °C": 192}
{"compound": "CCOC(c1ccc2ccccc2c1)C1CNC1.Cl (stereo not drawn)", "melting point, °C": 205}
{"compound": "Cl.Fc1ccc(C(Oc2ccc(Cl)c(Cl)c2)C2CNC2)cc1Cl (stereo not drawn)", "melting point, °C": 186}
{"compound": "Cl.Clc1ccc(C(Oc2ccccc2Cl)C2CNC2)cc1Cl (stereo not drawn)", "melting point, °C": 197}
{"compound": "Cl.Fc1cc(C(Oc2ccccc2)C2CNC2)ccc1Cl (stereo not drawn)", "melting point, °C": 201}
{"compound": "Cl.Clc1ccc(OC(c2ccc(Cl)c(Cl)c2)C2CNC2)cc1Cl (stereo not drawn)", "melting point, °C": 208}
{"compound": "Cl.OC(c1ccccc1)C1CNC1 (stereo not drawn)", "melting point, °C": 223}
{"compound": "Cl.Fc1ccccc1OC(c1ccc2ccccc2c1)C1CNC1 (stereo not drawn)", "melting point, °C": 211}
{"compound": "Cl.Fc1ccc(C(Oc2ccccc2F)C2CNC2)cc1F (stereo not drawn)", "melting point, °C": 187}
{"compound": "Cl.O=C(OC(c1ccccc1)C1CNC1)c1ccccc1 (stereo not drawn)", "melting point, °C": 215}
{"compound": "CCCC(Oc1ccc2ccccc2c1)C1CNC1.Cl (stereo not drawn)", "melting point, °C": 77}
{"compound": "CCCOC(c1ccc2ccccc2c1)C1CNC1.Cl (stereo not drawn)", "melting point, °C": 223}
{"compound": "Cl.Fc1ccc(OC(c2ccc(F)c(Cl)c2)C2CNC2)cc1 (stereo not drawn)", "melting point, °C": 211}
{"compound": "Cl.FC(F)(F)Oc1ccccc1OC(c1ccc2ccccc2c1)C1CNC1 (stereo not drawn)", "melting point, °C": 228}
{"compound": "Cl.Fc1ccc(C(Oc2cccc(Cl)c2)C2CNC2)cc1F (stereo not drawn)", "melting point, °C": 152}

---

pIC50 for assorted molecules
target.entity: human serotonin transporter (Homo sapiens (Human), UniProt P31645)
Sequence (P31645 whole entry): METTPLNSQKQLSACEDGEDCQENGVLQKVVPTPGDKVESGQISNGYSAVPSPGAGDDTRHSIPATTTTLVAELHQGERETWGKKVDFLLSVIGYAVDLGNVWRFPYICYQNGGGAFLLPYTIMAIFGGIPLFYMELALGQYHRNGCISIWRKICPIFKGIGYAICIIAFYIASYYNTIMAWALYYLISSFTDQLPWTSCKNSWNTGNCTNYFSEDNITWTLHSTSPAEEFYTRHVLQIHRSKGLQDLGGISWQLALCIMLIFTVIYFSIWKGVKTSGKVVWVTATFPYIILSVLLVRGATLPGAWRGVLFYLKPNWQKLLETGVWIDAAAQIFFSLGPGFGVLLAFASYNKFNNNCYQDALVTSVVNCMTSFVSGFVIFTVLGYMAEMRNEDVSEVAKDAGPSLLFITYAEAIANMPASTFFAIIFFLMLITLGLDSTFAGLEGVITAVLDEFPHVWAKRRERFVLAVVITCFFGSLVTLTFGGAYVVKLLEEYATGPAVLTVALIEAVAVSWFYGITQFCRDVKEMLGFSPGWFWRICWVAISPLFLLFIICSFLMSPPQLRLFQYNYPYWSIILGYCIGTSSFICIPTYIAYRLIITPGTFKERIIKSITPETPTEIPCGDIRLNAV
assay.remarks: hSERT binding assay ([3H]Imipramine);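 also: displacement of radiolabeled imipramine from the transporter, incubated 30 min at 27 °C in Tris-HCl pH 7.4 with NaCl and KCl, bound radioactivity counted after filtration, nonspecific binding defined with 200 uM imipramine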
pIC50: −log10 of the molar value.

{"molecule": "CCOC(c1ccc(Cl)c(Cl)c1)C1CNC1.Cl (stereo not shown) [KHG26757, hydrochloride]", "pIC50": 7.01}
{"molecule": "Cl.Clc1ccc(C(Oc2ccccc2)C2CNC2)cc1 (stereo not shown) [KHG26766, hydrochloride]", "pIC50": 8.04}
{"molecule": "Cc1ccccc1OC(c1ccc(Cl)c(Cl)c1)C1CNC1.Cl (stereo not shown) [KHG26774, hydrochloride]", "pIC50": 7.94}
{"molecule": "Cl.O=C(OC(c1ccccc1)C1CNC1)c1ccccc1 (stereo not shown) [KHG26771, hydrochloride]", "pIC50": 6.40}

---

target.entity: human norepinephrine transporter (Homo sapiens (Human), UniProt P23975)
Sequence (P23975 whole entry): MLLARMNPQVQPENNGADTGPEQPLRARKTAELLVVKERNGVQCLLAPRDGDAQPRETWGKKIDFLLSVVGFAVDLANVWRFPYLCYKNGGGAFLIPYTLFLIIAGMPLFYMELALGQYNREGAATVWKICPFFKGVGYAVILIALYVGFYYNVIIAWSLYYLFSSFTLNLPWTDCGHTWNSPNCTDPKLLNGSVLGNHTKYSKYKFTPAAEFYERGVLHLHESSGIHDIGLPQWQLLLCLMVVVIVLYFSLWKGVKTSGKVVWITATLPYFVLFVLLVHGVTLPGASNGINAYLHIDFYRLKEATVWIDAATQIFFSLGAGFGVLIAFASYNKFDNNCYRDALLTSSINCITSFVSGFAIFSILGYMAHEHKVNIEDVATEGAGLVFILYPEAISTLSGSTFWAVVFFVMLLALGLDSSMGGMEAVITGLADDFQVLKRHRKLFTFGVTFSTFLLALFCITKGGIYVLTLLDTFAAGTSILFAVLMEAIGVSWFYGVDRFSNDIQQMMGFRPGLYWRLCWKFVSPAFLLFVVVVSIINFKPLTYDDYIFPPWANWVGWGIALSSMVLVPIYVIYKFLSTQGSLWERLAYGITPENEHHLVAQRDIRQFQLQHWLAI
assay.remarks: hNET binding assay ([3H]Nisoxetine)
protocol.conditions: membrane from MDCK cells, 6 nM [3H]Nisoxetine
Where a name gives a salt, the structure may show the parent alone.
IC50 vs 90 nM: less than gives yes (1); not less than gives no (0).

{"compound": "Cl.c1ccc(COC(c2ccccc2)C2CNC2)cc1 (centres unmarked) [KHG26768, hydrochloride]", "group": "no (0)"}
{"compound": "Cl.O=C(OC(c1ccc(Cl)c(Cl)c1)C1CNC1)c1ccccc1 (centres unmarked) [KHG26773, hydrochloride]", "group": "no (0)"}
{"compound": "Clc1ccc(C(Oc2ccccc2)C2CNC2)cc1Cl (centres unmarked) [KHG26767, hydrochloride]", "group": "yes (1)"}
{"compound": "Cl.Clc1ccc(C(OCc2ccccc2)C2CNC2)cc1Cl (centres unmarked) [KHG26770, hydrochloride]", "group": "no (0)"}
{"compound": "Cc1cccc(OC(c2ccc(Cl)c(Cl)c2)C2CNC2)c1.Cl (centres unmarked) [KHG26775, hydrochloride]", "group": "yes (1)"}
{"compound": "Cc1ccccc1OC(c1ccc(Cl)c(Cl)c1)C1CNC1.Cl (centres unmarked) [KHG26774, hydrochloride]", "group": "yes (1)"}
{"compound": "CCOC(c1ccc(Cl)cc1)C1CNC1.Cl (centres unmarked) [KHG26754, hydrochloride]", "group": "no (0)"}
{"compound": "Cl.Clc1ccc(C(OCc2ccccc2)C2CNC2)cc1 (centres unmarked) [KHG26769, hydrochloride]", "group": "no (0)"}
{"compound": "Cl.O=C(OC(c1ccc(Cl)cc1)C1CNC1)c1ccccc1 (centres unmarked) [KHG26772, hydrochloride]", "group": "no (0)"}
{"compound": "COC(c1ccc(Cl)c(Cl)c1)C1CNC1.Cl (centres unmarked) [KHG26756, hydrochloride]", "group": "no (0)"}
